Cited source: patent US20250199004A1

# Tested on: OVCAR4 cells
# Run description: Cisplatin dose-response, cell viability by MTT assay
# Type: cell-based, human
# Test context: OVCAR4 control with intact CBX2, suspension, 24 h, MTT
Metric: pIC50
Interpret pIC50 as the negative base-10 log of the concentration measured in mol/L.

Item N.N.[Cl][Pt][Cl] [cisplatin] : provide pIC50
3.77

* * *

# System: OVCAR4 cells
# Run description: Cisplatin dose-response, cell viability by MTT assay
# Format: cell-based, human
# Test context: OVCAR4 shCBX2 #2 knockdown cells, adherent, 24 h, MTT
Metric: pIC50
Interpret pIC50 as the negative base-10 log of the concentration measured in mol/L.

Item N.N.[Cl][Pt][Cl] [cisplatin] : provide pIC50
4.81
